- Target Of Assay: T1, murine LAG3-Fc antigen (R&D Systems, 3328-L3-050) (murine, UniProt Q61790 24-442)
- T1 construct: Bought reagent
- T1 sequence (looked up): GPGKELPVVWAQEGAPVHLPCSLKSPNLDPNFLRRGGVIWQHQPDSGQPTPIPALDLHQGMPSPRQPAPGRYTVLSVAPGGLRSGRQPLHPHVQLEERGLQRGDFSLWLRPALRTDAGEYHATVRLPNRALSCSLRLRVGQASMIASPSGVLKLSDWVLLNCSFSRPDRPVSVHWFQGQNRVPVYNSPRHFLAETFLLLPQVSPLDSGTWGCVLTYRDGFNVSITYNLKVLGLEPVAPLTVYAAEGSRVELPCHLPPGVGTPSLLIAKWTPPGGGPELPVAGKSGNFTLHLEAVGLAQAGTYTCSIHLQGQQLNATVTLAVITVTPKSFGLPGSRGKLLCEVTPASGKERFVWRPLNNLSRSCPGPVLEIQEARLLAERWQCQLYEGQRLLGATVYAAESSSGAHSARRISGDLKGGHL
- Measurement Notes: ELISA using murine LAG3-Fc antigen
Measure Name: binding result

- Binder: "bivalent P10C3 aVH-Fc (Fc fusion) EVQLVESGGGLVQPGGSLRLSCAASGFNIKDTCIGWVRRAPGKGTELVAEICTDAGYTRYADSVKGRFTISADTSKNTAYLQMNSLRAEDTAVYYCAASESPSGFRYWGQGTTVTVSSGGGGSGGGGSDKTHTCPPCPAPEAAGGPSVFLFPPKPKDTLMISRTPEVTCVVVDVSHEDPEVKFNWYVDGVEVHNAKTKPREEQYNSTYRVVSVLTVLHQDWLNGKEYKCKVSNKALGAPIEKTISKAKGQPREPQVYTLPPSRDELTKNQVSLTCLVKGFYPSDIAVEWESNGQPENNYKTTPPVLDSDGSFFLYSKLTVDKSRWQQGNVFSCSVMHEALHNHYTQKSLSLSPGK"
  Result: "no binding"
- Binder: "bivalent P11E2 aVH-Fc (Fc fusion) EVQLVESGGGLVQPGGSLRLSCAASGFNIKDTCIGWVRRAPGKGTELVAEICDDIGYTRYADSVKGRFTISADTSKNTAYLQMNSLRAEDTAVYYCASQEHQWSFKYWGQGTTVTVSSGGGGSGGGGSDKTHTCPPCPAPEAAGGPSVFLFPPKPKDTLMISRTPEVTCVVVDVSHEDPEVKFNWYVDGVEVHNAKTKPREEQYNSTYRVVSVLTVLHQDWLNGKEYKCKVSNKALGAPIEKTISKAKGQPREPQVYTLPPSRDELTKNQVSLTCLVKGFYPSDIAVEWESNGQPENNYKTTPPVLDSDGSFFLYSKLTVDKSRWQQGNVFSCSVMHEALHNHYTQKSLSLSPGK"
  Result: "no binding"
